Reference for the values: the supplement of paper PMC10567573

Listed here: items and their measured protein stability index.
B1: C20orf112 (parent)
chain: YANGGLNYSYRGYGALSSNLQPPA

- Variants of: B1
- assay-details: protein stability index of a GFP-peptide fusion (GPS, HEK-293T) (PSI 1-6); higher = more stable;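 note: lentivirally expressed fusions sorted by FACS into six bins by GFP to DsRed ratio, PSI derived from sequencing read proportions per bin multiplied by bin number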
- setup-conditions: c terminus: a fixed tail appended
measurement-kind: protein stability index

>>> df
    mutation_list  result
 0            S9H    1.82
 1            S9I    2.58
 2           Y13V    1.73
 3            Y8D    1.95
 4           P22S    1.62
 5           L16T    1.76
 6           S17F    2.49
 7           P23G     2.6
 8           G14S    2.32
 9            A2S    1.54
10            N3S    1.99
11            N3R    2.25
12           L20C     2.7
13           A15E    2.37
14            A2K    2.19
15           P22W    1.97
